# viability at 20 µM values compiled below
- TEST METHOD NOTES: Cytotoxicity against LPS-stimulated mouse BV2 cells assessed as cell viability at 20 uM by MTT assay relative to control
- Format: cell-based, BV-2
- CONDITION: read-out: Activity
MEASURED PARAMETER: viability at 20 µM (%)

- COc1cc([C@@H]2Oc3c(OC)cc(/C=C/C=O)cc3[C@H]2CO)ccc1O: 115
- COc1cc([C@H]2OC[C@H]3[C@@H]2CO[C@@H]3c2ccc(O)c(OC)c2)ccc1O: 111
- COc1cc([C@H](O)[C@@H](CO)Oc2ccc(/C=C/C=O)cc2OC)ccc1O: 129
- c1cc2c(cc1[C@@H]1OC[C@@H]3[C@H]1CO[C@H]3c1ccc3c(c1)OCO3)OCO2: 126
- COc1cc(C(O)C(CO)Oc2c(OC)cc([C@@H]3OC[C@@H]4[C@H]3CO[C@H]4c3ccc(O)c(OC)c3)cc2OC)ccc1O (stereo partly specified): 121
- COc1cc([C@@H]2Oc3c(OC)cc(/C=C/C=O)cc3[C@H]2CO)cc(OC)c1O: 120
- COc1cc([C@@H](O)[C@@H](CO)Oc2ccc(/C=C/C=O)cc2OC)ccc1O: 123
- COc1cc([C@@H](O)[C@@H](CO)Oc2ccc(C=O)cc2OC)ccc1O (relative stereo): 116
- COc1cc([C@@H]2OC[C@@H]3[C@H]2CO[C@H]3c2ccc3c(c2)OCO3)ccc1O: 113
- COc1cc(C(O)C(CO)Oc2c(OC)cc([C@@H]3Oc4c(OC)cc(/C=C/C=O)cc4[C@H]3CO)cc2OC)ccc1O (stereo partly specified): 129
- COc1cc([C@@H](O)[C@@H](CO)Oc2c(OC)cc(/C=C/CO)cc2OC)ccc1O (relative stereo): 120
